# measurementProtocol: Population pharmacokinetic (PopPK) model of ilaprazole, intravenous infusion, pooled data of 4 phase I and 1 phase IIa trials
# Format: in vivo, human
# reportedConditions: both sexes, human, plasma, intravenous; final model estimate; read-out: CL, clearance of central compartment, typical value (converted)
metric: clearance (mL/min)
Answers are plain numbers, in mL/min.

[Q] Looking for the measured clearance of COc1ccnc(C[S+]([O-])c2nc3cc(-n4cccc4)ccc3[nH]2)c1C (stereo not shown) [ilaprazole] , can you help?
[A] 56.6
